Each recorded value in this set is attributed to PubChem BioAssay.

# protocol.text: inhibition of 3D7 malaria parasite growth – strain 3D7 (AID 2306);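 note: 0% = DMSO wells and 100% = chloroquine plus artemisinin control wells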
# experimental.setup: P. falciparum 3D7 erythrocytic growth, LDH absorbance, 72 h; at 2 µM; active compounds read high
Kindly state growth inhibition for each of the entries shown.
Answers are plain numbers, in %.

Consider the worked cases shown below.
{"columns": ["compound", "growth inhibition, %"],
 "data": [
  ["CCC(C)CC(=O)Nc1ccc(OC)c(S(=O)(=O)N[C@@H]2CCN(C#N)C2)c1 (some centres not stated)", 94],
  ["FC(F)(F)c1ccc2nc(-c3cccc(-c4ccc(CNCC5CCCO5)cc4)c3)[nH]c2c1 (configuration not stated)", 99],
  ["CC(C)N1CCC(N(Cc2ccc(-c3ccc(C(F)(F)F)cc3)cc2)C(=O)CCCn2c(CCc3cccc(F)c3F)nc(=O)c3ccccc32)CC1", 89]
]}

# map each compound to its growth inhibition
1. c1ccc(-c2cc(NCCCn3ccnc3)nc(-c3cccnc3)n2)cc1
2. Cc1cc(CN2CCC(Nc3ncc(-c4ccsc4)c4nc(C(F)(F)F)ccc34)CC2)no1
3. COC(=O)C1=CNC=C(C(=O)OC)C1c1ccc(Cl)c([N+](=O)[O-])c1
4. COc1cccc(CN(C(=O)Nc2ccccc2F)[C@H]2C[C@H]3C(=O)Nc4cc(F)ccc4C(=O)N3C2)c1
5. COc1ccc(NC(=O)c2csc(-c3cc(NC(=O)c4ccnc(N5CCCC5)c4)ccc3C)c2)cc1N1CCN(C)CC1

(A)
1: 84; 2: 81; 3: 93; 4: 93; 5: 100

* * *

# protocol.text: human hepatoma cell viability loss – ATP luminescence, cytotoxicity control for P. falciparum antimalarial project, primary screen (AID 2303);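 note: 0% = DMSO wells and 100% = digitonin-killed cells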
# experimental.setup: HepG2 viability, 24-48 h, at 10 µM, active compounds read high
Kindly state inhibition for each of the entries shown.
Answers are plain numbers, in %.

Consider the worked cases shown below.
{"columns": ["smiles.representation", "units.label", "measurement"],
 "data": [
  ["COc1ccc2c(=O)c3ccc(OC)cc3[nH]c2c1", "%", 12],
  ["COC(=O)c1ccccc1COc1ccc(CC2(NC(=O)[C@H](Nc3ccc(C#N)c4ccccc34)C(C)(C)C)CCCC2)cc1", "%", 1],
  ["N#Cc1ccc(-c2ccc(C(=O)NCCCCN3CCC(c4cn(CCO)c5ccccc45)CC3)cc2)cc1", "%", 23],
  ["O=C(Nc1ccc(-c2cccc(-c3nc4ccccc4[nH]3)c2)cc1)Nc1ccc2c(c1)OCO2", "%", 55]
]}

Lab note: next compound to report on.
(Q) Given the compound COc1ccc2c(=O)c(-c3ccc(OC(F)(F)F)cc3)c(C)[nH]c2c1 , what is its reported inhibition?
(A) 0

* * *

# protocol.text: human hepatoma cell viability loss – ATP luminescence, cytotoxicity control for P. falciparum antimalarial project, primary screen (AID 2303);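 note: 0% = DMSO wells and 100% = digitonin-killed cells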
# experimental.setup: HepG2 viability, 24-48 h, at 10 µM, active compounds read high
metric: inhibition (%)
One number for each entry, in %.

Consider the worked cases shown below.
{"columns": ["compound", "measurement"],
 "data": [
  ["O=C(NCCCCCN1CCC(c2c[nH]c3ccccc23)CC1)Nc1ccc(Cl)c(Cl)c1", 42],
  ["CC(=O)c1ccc2cc(C(=O)NC3CCC(CCN4CCc5ccc(-c6noc(C)n6)cc5CC4)CC3)[nH]c2c1 (stereo not drawn)", 28],
  ["O=C(Nc1ccncc1)Nc1ccc2c(c1)CCN(C1CCC1)CC2", -1]
]}

# map each compound to its inhibition
1. COc1cc(NC(=O)c2cc([N+](=O)[O-])ccc2NC(=O)CNC2CCCCC2C)cc(OC)c1 (stereo not drawn)
2. COc1ccc(CCC(C)(C)NCC(O)c2cccc(C(F)(F)F)c2)cc1 (stereo not drawn)
3. CCc1ccc(S(=O)(=O)Nc2ccc(CCN(C)C3CCN(C)CC3)cc2)cc1
4. CN(C)c1nc2cc(-n3cnc4cc(-c5ccc(Cl)cc5)sc4c3=O)ccc2n1CCCN1CCCCC1
5. CC(CN(C)C)C(=O)Nc1cccc(-c2ccc(-c3nc4ccccc4[nH]3)s2)c1 (stereo not drawn)
6. Cc1ccc2nc3c(cc(C(=O)NCCc4ccccc4)c(=N)n3CCCOC(C)C)c(=O)n2c1
7. Oc1ccc(CCNc2nc(NCc3cccc(OCc4cccc(F)c4)c3)nc(N3CCNCC3)n2)cc1

(A)
1. -2
2. 26
3. 25
4. 55
5. 13
6. 15
7. 27

# map each compound to its inhibition
1. COc1ccc(CNCc2ccc(F)cc2)cc1-c1cccc(S(=O)(=O)NCCN2CCCC2)c1
2. O=S(=O)(NCCN1CCCC1)c1ccc(-c2ccc(CNCc3ccc(F)cc3)cc2)cc1
3. O=C(/C=C/c1ccc(Cl)cc1)NCCCCCN1CCC(c2c[nH]c3ccccc23)CC1
4. CCCNCc1ccc(-c2ccc(CN(CCOC)C(=O)[C@H]3CCCO3)cc2)nc1
5. CC(=O)N1Cc2ccccc2C1=O
6. COc1ccc(CCC(C)N2C[C@@H](N)[C@H](c3cn(C)c4cnccc34)C2)cc1 (stereo partly drawn)
7. CC(O)CNc1nc2ccccc2n1CC(=O)Nc1cccc(C(=O)Nc2cccc(C(F)(F)F)c2)c1 (stereo not drawn)
8. Cc1cc(-c2c[nH]c3ncc(-c4cccc5ncccc45)cc23)ccc1C(=O)O

(A)
1: 43; 2: 42; 3: 42; 4: 1; 5: 10; 6: 5; 7: 2; 8: 31
